Test system: AMARE
Assay: Pre-emergence action against AMARE
Assay type: in vivo, Amaranthus retroflexus
Details: Amaranthus retroflexus, 504 h; pre-emergence, dosage 320 g/ha, scored visually after 3 weeks vs untreated controls; read-out: Pre-emergence action against AMARE (herbicidal activity)
From the text: Seeds of monocotyledonous and dicotyledonous weed plants and crop plants are laid out in sandy loam soil in wood-fiber pots and covered with soil. […] The damage to the test plants is scored visually after a test period of 3 weeks by comparison with untreated controls (herbicidal activity in percent (%): 100% activity=the plants have died, 0% activity=like control plants).
Can you tell me pest or weed control at 320 g/ha for the items I'm about to list?
Output spec: scalar in %, unitless text.

Prompt: Form entry - test system: AMARE; read-out: pest or weed control at 320 g/ha; molecule: Cn1nnnc1NC(=O)c1ccc(S(C)(=O)=O)c(C(=O)C2CC2)c1Cl
Completion: 100

Prompt: Form entry - test system: AMARE; read-out: pest or weed control at 320 g/ha; molecule: CCC(=O)c1c(Cl)ccc(C(=O)Nc2nnnn2C)c1Cl
Completion: 100

Prompt: Form entry - test system: AMARE; read-out: pest or weed control at 320 g/ha; molecule: Cn1nnnc1NC(=O)c1ccc(C(F)(F)F)c(C(=O)C(C)(C)C)c1Cl
Completion: 100

Prompt: Form entry - test system: AMARE; read-out: pest or weed control at 320 g/ha; molecule: CC(=O)c1c(C)ccc(C(=O)Nc2nnnn2C)c1Cl
Completion: 100

Prompt: Form entry - test system: AMARE; read-out: pest or weed control at 320 g/ha; molecule: CCn1nnnc1NC(=O)c1ccc(C(F)(F)F)c(C(=O)C2CC2)c1C
Completion: 100

Prompt: Form entry - test system: AMARE; read-out: pest or weed control at 320 g/ha; molecule: CC(=O)C(=O)c1c(C(F)(F)F)ccc(C(=O)Nc2nnnn2C)c1Cl
Completion: 100

Prompt: Form entry - test system: AMARE; read-out: pest or weed control at 320 g/ha; molecule: CSc1c(C(=O)Nc2nnnn2C)ccc(C(F)(F)F)c1C(=O)C1CC1
Completion: 100

Prompt: Form entry - test system: AMARE; read-out: pest or weed control at 320 g/ha; molecule: CSc1c(C(=O)Nc2nnnn2C)ccc(C(F)F)c1C(=O)C1CC1
Completion: 100

Prompt: Form entry - test system: AMARE; read-out: pest or weed control at 320 g/ha; molecule: CC(C)C(=O)c1c(C(F)(F)F)ccc(C(=O)Nc2nnnn2C)c1Cl
Completion: 100

Prompt: Form entry - test system: AMARE; read-out: pest or weed control at 320 g/ha; molecule: Cn1nnnc1NC(=O)c1ccc(C(F)F)c(C(=O)C2CC2)c1Cl
Completion: 100

Prompt: Form entry - test system: AMARE; read-out: pest or weed control at 320 g/ha; molecule: CC(=O)c1c(C(F)(F)F)ccc(C(=O)Nc2nnnn2C)c1Cl
Completion: 100

Prompt: Form entry - test system: AMARE; read-out: pest or weed control at 320 g/ha; molecule: CCCC(=O)c1c(C(F)(F)F)ccc(C(=O)Nc2nnnn2C)c1C
Completion: 100

Prompt: Form entry - test system: AMARE; read-out: pest or weed control at 320 g/ha; molecule: CC(C)C(=O)c1c(Cl)ccc(C(=O)Nc2nnnn2C)c1Cl
Completion: 100

Prompt: Form entry - test system: AMARE; read-out: pest or weed control at 320 g/ha; molecule: CSc1ccc(C(=O)Nc2nnnn2C)c(Cl)c1C(C)=O
Completion: 100

Prompt: Form entry - test system: AMARE; read-out: pest or weed control at 320 g/ha; molecule: CCCC(=O)c1c(C(F)(F)F)ccc(C(=O)Nc2nnnn2C)c1Cl
Completion: 100

Prompt: Form entry - test system: AMARE; read-out: pest or weed control at 320 g/ha; molecule: CC(=O)c1c(S(C)(=O)=O)ccc(C(=O)Nc2nnnn2C)c1C
Completion: 100

Prompt: Form entry - test system: AMARE; read-out: pest or weed control at 320 g/ha; molecule: CCC(=O)c1c(C)ccc(C(=O)Nc2nnnn2C)c1Cl
Completion: 100

Prompt: Form entry - test system: AMARE; read-out: pest or weed control at 320 g/ha; molecule: CC(=O)c1c(C)ccc(C(=O)Nc2nnnn2C)c1C
Completion: 100

Prompt: Form entry - test system: AMARE; read-out: pest or weed control at 320 g/ha; molecule: Cc1ccc(C(=O)Nc2nnnn2C)c(C)c1C(=O)C1CC1
Completion: 100

Prompt: Form entry - test system: AMARE; read-out: pest or weed control at 320 g/ha; molecule: Cn1nnnc1NC(=O)c1ccc(C(F)(F)F)c(C(=O)C(F)F)c1Cl
Completion: 100

Prompt: Form entry - test system: AMARE; read-out: pest or weed control at 320 g/ha; molecule: CCn1nnnc1NC(=O)c1ccc(C(F)(F)F)c(C(C)=O)c1Cl
Completion: 100

====

tested on: AMARE; assay: Pre-emergence action against AMARE; type: in vivo, Amaranthus retroflexus; details: pre-emergence, dosage 320 g/ha, scored visually after 3 weeks vs untreated controls
QUANTITY KIND: Pre-emergence action against AMARE (herbicidal activity)

Prompt: Form entry - test system: AMARE; read-out: Pre-emergence action against AMARE (herbicidal activity); compound: Cn1nnnc1NC(=O)c1ccc(C(F)(F)F)c(C(=O)C2CCCCC2)c1Cl [1-155]
Completion: 80%

Prompt: Form entry - test system: AMARE; read-out: Pre-emergence action against AMARE (herbicidal activity); compound: CCCn1nnnc1NC(=O)c1ccc(S(C)(=O)=O)c(C(=O)C2CC2)c1Cl [3-129]
Completion: 100%

Prompt: Form entry - test system: AMARE; read-out: Pre-emergence action against AMARE (herbicidal activity); compound: CCCn1nnnc1NC(=O)c1ccc(C(F)(F)F)c(C(C)=O)c1OC [3-48]
Completion: 100%

Prompt: Form entry - test system: AMARE; read-out: Pre-emergence action against AMARE (herbicidal activity); compound: CCn1nnnc1NC(=O)c1ccc(S(C)(=O)=O)c(C(C)=O)c1C [2-7]
Completion: 100%

Prompt: Form entry - test system: AMARE; read-out: Pre-emergence action against AMARE (herbicidal activity); compound: CCCn1nnnc1NC(=O)c1ccc(C)c(C(=O)C2CC2)c1Cl [3-136]
Completion: 90%

Prompt: Form entry - test system: AMARE; read-out: Pre-emergence action against AMARE (herbicidal activity); compound: CCn1nnnc1NC(=O)c1ccc(C(F)F)c(C(=O)C2CC2)c1Cl [2-168]
Completion: 100%

Prompt: Form entry - test system: AMARE; read-out: Pre-emergence action against AMARE (herbicidal activity); compound: CCCC(=O)c1c(C(F)(F)F)ccc(C(=O)Nc2nnnn2CC)c1Cl [2-139]
Completion: 100%

Prompt: Form entry - test system: AMARE; read-out: Pre-emergence action against AMARE (herbicidal activity); compound: CCCn1nnnc1NC(=O)c1ccc(C(F)(F)F)c(C(=O)C2CC2)c1OC [3-50]
Completion: 100%

Prompt: Form entry - test system: AMARE; read-out: Pre-emergence action against AMARE (herbicidal activity); compound: CCCn1nnnc1NC(=O)c1ccc(C(F)(F)F)c(C(=O)CC)c1C [3-15]
Completion: 100%

Prompt: Form entry - test system: AMARE; read-out: Pre-emergence action against AMARE (herbicidal activity); compound: CCCn1nnnc1NC(=O)c1ccc(C)c(C(=O)C2CC2)c1C [3-3]
Completion: 100%

Prompt: Form entry - test system: AMARE; read-out: Pre-emergence action against AMARE (herbicidal activity); compound: CSc1c(C(=O)Nc2nnnn2C)ccc(C(F)(F)F)c1C(=O)C1CCCC1 [1-285]
Completion: 100%

Prompt: Form entry - test system: AMARE; read-out: Pre-emergence action against AMARE (herbicidal activity); compound: CCCn1nnnc1NC(=O)c1ccc(C(F)F)c(C(=O)C2CC2)c1SC [3-67]
Completion: 100%

====

test system: MATIN; test: Post-emergence action against MATIN; type: in vivo, Matricaria inodora; conditions: Table V17, post-emergence, 5 g of a.i./ha
Can you tell me Herbicidal efficacy against MATIN for the items I'm about to list?

Prompt: Using the record for Cc1c(C(=O)Nc2nnnn2C)ccc(S(C)(=O)=O)c1C(=O)C1CC1 [1-9] , report its Herbicidal efficacy against MATIN.
Completion: 100

Prompt: Using the record for CCn1nnnc1NC(=O)c1ccc(S(C)(=O)=O)c(C(C)=O)c1C [2-7] , report its Herbicidal efficacy against MATIN.
Completion: 100

Prompt: Using the record for CC(=O)c1c(S(C)(=O)=O)ccc(C(=O)Nc2nnnn2C)c1C [1-7] , report its Herbicidal efficacy against MATIN.
Completion: 100

Prompt: Using the record for CCn1nnnc1NC(=O)c1ccc(S(C)(=O)=O)c(C(=O)C2CC2)c1C [2-9] , report its Herbicidal efficacy against MATIN.
Completion: 90
